# tested.on: BoNT/A LC1-429 (Clostridium botulinum)
# Sequence (P0DPI1 1-429, added parts left off): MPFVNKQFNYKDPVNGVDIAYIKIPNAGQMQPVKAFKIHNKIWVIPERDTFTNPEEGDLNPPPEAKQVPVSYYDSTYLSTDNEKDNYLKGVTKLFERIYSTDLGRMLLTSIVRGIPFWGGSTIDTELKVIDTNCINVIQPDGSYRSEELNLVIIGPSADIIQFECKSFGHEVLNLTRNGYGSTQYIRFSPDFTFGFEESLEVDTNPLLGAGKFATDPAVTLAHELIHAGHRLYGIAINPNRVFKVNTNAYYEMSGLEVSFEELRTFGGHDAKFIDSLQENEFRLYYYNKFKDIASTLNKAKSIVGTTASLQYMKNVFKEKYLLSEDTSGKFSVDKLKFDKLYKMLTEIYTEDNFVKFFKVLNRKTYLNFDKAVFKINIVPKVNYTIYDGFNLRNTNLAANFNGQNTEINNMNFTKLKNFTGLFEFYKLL
# test.method.notes: biochemical
pKi: −log10 of the molar value.
Category key, based on recorded pKi: lo (below 6), mid (6 to below 7), hi (7 or more)

| smiles.input | assigned.label |
| --- | --- |
| CCO[C@H](CC(=O)NO)[C@H](Cc1ccc(-c2ccncc2)cc1)c1ccc(F)cc1 | mid |
| C=Cc1ccc(C[C@H](c2ccc(F)cc2)[C@@H](CC(=O)NO)OCC)cc1 | hi |
| CCO[C@H](CC(=O)NO)[C@H](Cc1ccc(C(=O)N(C)C)cc1)c1ccc(F)cc1 | lo |
| CCO[C@H](CC(=O)NO)[C@H](Cc1ccccc1)c1ccc(F)cc1 | hi |
| CCO[C@H](CC(=O)NO)[C@H](Cc1ccc(C(=O)O)cc1)c1ccc(F)cc1 | lo |
| CCO[C@H](CC(=O)NO)[C@H](Cc1ccc(Br)cc1)c1ccc(F)cc1 | hi |
